Please provide measured nuclei count for the entries that follow.
Assay comment: inhibitors of E-selectin induction by TNFa, primary screen, imaging, HUVEC, immunofluorescence, MLSMR starter and 10KST1 sets (AID 487);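 further: 100% = median nuclei count of all wells on the same plate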
Test parameters: HUVEC TNFalpha-induced E-selectin immunofluorescence imaging, at 2 µM; measured here: cell number, toxicity
Answer with the figure and its unit, nothing else.

Past entries and their recorded results:
{"Compound": "CCOC(=O)c1[nH]c2ccccc2c1NC(=O)CCN1CCN(C(=O)OCC)CC1", "nuclei count": "144%"}
{"Compound": "Cc1nc2ccccc2cc1O", "nuclei count": "103%"}
{"Compound": "Cn1c2c(c(=O)n(C)c1=O)C(NC(=O)C(C)(C)C)(C(F)(F)F)C(=O)N2 (stereo unspecified)", "nuclei count": "131%"}
{"Compound": "CC[C@]1(O)CC2CN(CCc3c([nH]c4ccccc34)[C@@](C(=O)OC)(c3cc4c(cc3OC)N(C=O)[C@H]3[C@@](O)(C(=O)OC)[C@H](OC(C)=O)[C@]5(CC)C=CCN6CC[C@]43[C@@H]65)C2)C1 (stereo partly specified)", "nuclei count": "76.8%"}
{"Compound": "COC(=O)/C=c1/s/c(=C(/C#N)C(=O)N2CCOCC2)n(-c2ccccc2)c1=O", "nuclei count": "119%"}
{"Compound": "Cc1ccc(C2C(C(=O)c3cc4ccccc4o3)=C(O)C(=O)N2CCN(C)C)o1 (stereo unspecified)", "nuclei count": "101%"}

Hey, can you go through the list below and give me nuclei count for every item?
1. COc1ccc(C(CC(=O)N2CCOCC2)C(C)C)cc1 (stereo unspecified)
2. CC(COc1ccccc1)NC(C)C(O)c1ccc(O)cc1 (stereo unspecified)
3. OCCNc1nc(-c2ccccc2)c2ccccc2n1

97.9%
121%
133%

====

Measured target: Voltage-gated potassium channel subunit beta-2 (Rattus norvegicus)
Assay comment: KvBeta positive modulators, primary screen, biochemical, NADPH fluorescence (AID 623);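 further: fluorescence intensity change per second fitted from 20 to 320 s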
Test parameters: Recombinant KvBeta, NADPH fluorescence decrease slope, 10 min; at 10 µM; stronger effect = lower value
Endpoint: NADPH fluorescence slope
Answers are plain numbers.

Hey, can you go through the list below and give me NADPH fluorescence slope for every item?
1. O=C(NC1CCS(=O)(=O)C1)c1c(NC(=O)C2COc3ccccc3O2)sc2c1CCCC2 (stereo unspecified)
2. CCCC(=O)Nc1sc2c(c1C#N)CCCC2
3. CC(=N\O)/C(CN(C)C)=N/O
4. CCSc1nnc(NC(=O)C(CC)(C(F)(F)F)C(F)(F)F)s1
5. C=CC(O)Cc1c(C)n[nH]c1C (stereo unspecified)
6. CCC(C)n1ncn(-c2ccc(N3CCN(c4ccc(OCC5COC(Cn6cncn6)(c6ccc(Cl)cc6Cl)O5)cc4)CC3)cc2)c1=O (stereo unspecified)

["-4.5e-05", -0.000372, "-6.9e-05", "-4.4e-05", "-6.2e-05", "-5.2e-05"]

Hey, can you go through the list below and give me NADPH fluorescence slope for every item?
1. CSc1nc(N)c(C#N)c(-c2ccccc2Cl)c1C#N
2. COc1ccc(NS(=O)(=O)c2ccc(N)cc2)nn1
3. COC(=O)CN1C2(C#N)CCCCC2CC2CCCCC21C#N (stereo unspecified)

1: -0.000311; 2: 5.7e-06; 3: -9.5e-05

Hey, can you go through the list below and give me NADPH fluorescence slope for every item?
1. CCOC(=O)c1[nH]c2ccccc2c1NC(=O)CCN1CCN(C(=O)OCC)CC1
2. Cc1ccc(-c2nn3c(-c4cccc(Cl)c4)nnc3s2)cc1

["-4.4e-05", "7.3e-06"]

====

Assay comment: inhibitors of poly I:C-induced TLR3 signaling, primary screen, cell-based, poly I:C stimulus, luciferase, 10K MLSCN set (AID 602277)
Test parameters: HEK293-TLR3 RL24 IRF3 luciferase reporter, at 10 µM, stronger effect = higher value
Threshold check on inhibition: at or above 20% gives true (1), strictly below gives false (0).

Could you please find out whether COc1ccc(Cn2c(CCCO)nc3ccccc32)cc1OC has inhibition that meets 20% or exceeds it?
true (1)

Could you please find out whether COCCCC/C(=N\OCCN)c1ccc(C(F)(F)F)cc1 has inhibition that meets 20% or exceeds it?
true (1)

Could you please find out whether CC1CNCCN1S(=O)(=O)c1cccc2cnccc12 (centres undefined) has inhibition that meets 20% or exceeds it?
true (1)

====

Assay comment: DUSP6 inhibitors restoring Erk phosphorylation by chemical complementation, primary imaging in DUSP6-transfected HeLa (AID 609)
Test parameters: HeLa MKP-3 transfected, phospho-Erk imaging KS statistic; measured here: cell density z-score; at 10 µM; cells stimulated with TPA for 15 min
Threshold check on z-score: at or above -0.002 gives 1 (yes), strictly below gives 0 (no).

Worked examples, 5 molecules total:
{"Molecule": "CCOC(=O)c1c(SC)nc(SC)c2c1CCC2", "Category label": "1 (yes)"}
{"Molecule": "Clc1ccccc1CN1CCc2sccc2C1", "Category label": "1 (yes)"}
{"Molecule": "NS(=O)(=O)c1cc2c(cc1Cl)NC(CSCc1ccccc1)=NS2(=O)=O", "Category label": "0 (no)"}
{"Molecule": "Nc1ccc2oc3ncccc3c(=O)c2c1", "Category label": "1 (yes)"}
{"Molecule": "COc1ccccc1-c1nn2c(-c3ccco3)nnc2s1", "Category label": "1 (yes)"}

Could you please find out whether COc1ccc2c(C)nc(Nc3nc(C)cc(C)n3)nc2c1 has z-score that meets -0.002 or exceeds it?
0 (no)

Could you please find out whether COc1ccc(/C(O)=C2/C(=O)C(=O)N(CCCN(C)C)C2c2ccco2)cc1Cl (configuration not stated) has z-score that meets -0.002 or exceeds it?
1 (yes)

Could you please find out whether O=C(O)c1ccc(COc2c(F)c(F)c(F)c(F)c2F)o1 has z-score that meets -0.002 or exceeds it?
1 (yes)

Could you please find out whether CCn1cc(C(=O)NCCc2ccccc2)c(=O)c2cc(F)c(N3CCN(C)CC3)cc21 has z-score that meets -0.002 or exceeds it?
0 (no)

Could you please find out whether Cc1cccc(C)c1OCC(O)CNS(=O)(=O)c1ccccc1C(=O)N1CCCCC1 (configuration not stated) has z-score that meets -0.002 or exceeds it?
0 (no)

Could you please find out whether CCNCc1cc2cc(C)ccc2[nH]c1=O has z-score that meets -0.002 or exceeds it?
1 (yes)

Could you please find out whether CCCOc1ccc(N2C(=O)CC(N(Cc3ccc(S(N)(=O)=O)cc3)C(=O)CC)C2=O)cc1 (configuration not stated) has z-score that meets -0.002 or exceeds it?
0 (no)

Could you please find out whether CSC(=Nc1ccccc1)C1=C(O)COC1=O has z-score that meets -0.002 or exceeds it?
1 (yes)

Could you please find out whether Cc1ccc(C)c(OCCCC(C)(C)C(=O)O)c1 has z-score that meets -0.002 or exceeds it?
1 (yes)

====

Measured target: Voltage-gated potassium channel subunit beta-2 (Rattus norvegicus)
Assay comment: KvBeta positive modulators, primary screen, biochemical, NADPH fluorescence (AID 623);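 further: fluorescence intensity change per second fitted from 20 to 320 s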
Test parameters: Recombinant KvBeta, NADPH fluorescence decrease slope, 10 min; at 10 µM; stronger effect = lower value
The source made the active and inactive calls.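 The calls were made as follows: active = NADPH fluorescence slope more negative than the mean of all samples by about 3 SD, 99.7% confidence; inactive = the rest.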
Endpoint: NADPH fluorescence slope

Past entries and their recorded results:
{"Molecule": "Cc1cc(/C=N\\O)c(C)n1-c1ccncc1", "Recorded value": "-0.000127 (inactive)"}
{"Molecule": "COc1ccc(CCN2CCC(Nc3nc4ccccc4n3Cc3ccc(F)cc3)CC2)cc1", "Recorded value": "-0.000106 (inactive)"}
{"Molecule": "CC(=O)N1CC=C2C(C#N)=C(N)C(C#N)(C#N)[C@H](c3ccoc3)[C@H]2C1", "Recorded value": "7.7e-06 (inactive)"}
{"Molecule": "COc1cccc(-c2nc(N3CCCCC3)c3ccccc3n2)c1O", "Recorded value": "-3.2e-05 (inactive)"}
{"Molecule": "N#CC(C(=O)NC1CC1)c1nc2ccccc2nc1N1CCN(C/C=C/c2ccccc2)CC1 (stereo unspecified)", "Recorded value": "-1.2e-05 (inactive)"}
{"Molecule": "COC(=O)c1ccc(Cn2nnc3c(sc4nc(N5CCOCC5)c5c(c43)CCCC5)c2=O)o1", "Recorded value": "2.3e-06 (inactive)"}
{"Molecule": "COc1cc(OC)cc(C(=O)N2CCC(N3CCN(c4ccccc4)CC3)CC2)c1", "Recorded value": "5.8e-05 (inactive)"}
{"Molecule": "CCOC(=O)C(C#N)C(Cc1ccccc1)c1ccco1 (stereo unspecified)", "Recorded value": "-0.000162 (inactive)"}
{"Molecule": "CCCC(=O)O[C@]1(C(=O)CCl)[C@@H](C)C[C@H]2[C@@H]3CCC4=CC(=O)C=C[C@]4(C)[C@@]3(F)C(=O)C[C@@]21C", "Recorded value": "-7e-05 (inactive)"}
{"Molecule": "CCOC(=O)C1/C(=N\\O)CC(C)(O)C(C(=O)OCC)C1c1ccc(OC)c(OC)c1 (stereo unspecified)", "Recorded value": "-5.9e-05 (inactive)"}

Hey, can you go through the list below and give me NADPH fluorescence slope for every item?
1. CCOC(=O)CC1=NC(=O)CS1
2. COc1cccc(-c2nc(NCC3CCCO3)c3ccccc3n2)c1O (stereo unspecified)

-5.7e-05 (inactive)
-2.8e-05 (inactive)

Hey, can you go through the list below and give me NADPH fluorescence slope for every item?
1. Fc1cnc(N2CCOCC2)nc1NCc1ccccc1
2. N#C/C(=N\O)c1nc(-c2ccccc2)cs1
3. Cc1nn(C)cc1/C=N/O
4. CC(=O)c1c(OCC(=O)O)ccc2c(C)cc(=O)oc12
5. C[N+]12CCC(CC1)C(OC(=O)C(O)(c1ccccc1)c1ccccc1)C2 (stereo unspecified)
6. O=C(c1cccs1)N1CCC(N2CCN(c3ccccc3)CC2)CC1
7. COc1ccc(/C(O)=C2/C(=O)C(=O)N(CCCN(C)C)C2c2ccccc2)cc1OC (stereo unspecified)

1. -5.9e-05 (inactive)
2. -0.000175 (inactive)
3. -0.000175 (inactive)
4. -6.6e-05 (inactive)
5. -2.4e-05 (inactive)
6. -1.9e-05 (inactive)
7. -3.5e-05 (inactive)

Hey, can you go through the list below and give me NADPH fluorescence slope for every item?
1. Cc1ccc2[nH]c3c(c2c1)CN(C(=O)CN1CCN(c2ccccn2)CC1)CC3
2. CC(C)Cc1nc(N2CCN(C(=O)c3ccco3)CC2)c(C#N)c2c1CCC2
3. COC(=O)c1cc(=O)n2c(-c3ccc(OC)cc3)csc2n1
4. Cc1c(NC(=O)c2coc(=O)c(Br)c2)c(=O)n(-c2ccccc2)n1C

["-0.000143 (inactive)", "-7e-05 (inactive)", "-3.1e-05 (inactive)", "-2.1e-05 (inactive)"]
